Reference source for all entries: patent US20260015426A1

study target: T1, hu-M-IL1RAP construct, positions S21-T367 (extracellular domain of the membrane form of human IL1RAP) (human, UniProt Q9NPH3 21-367)
T1 construct: Biotinylated when captured on the Biacore chip
T1 sequence: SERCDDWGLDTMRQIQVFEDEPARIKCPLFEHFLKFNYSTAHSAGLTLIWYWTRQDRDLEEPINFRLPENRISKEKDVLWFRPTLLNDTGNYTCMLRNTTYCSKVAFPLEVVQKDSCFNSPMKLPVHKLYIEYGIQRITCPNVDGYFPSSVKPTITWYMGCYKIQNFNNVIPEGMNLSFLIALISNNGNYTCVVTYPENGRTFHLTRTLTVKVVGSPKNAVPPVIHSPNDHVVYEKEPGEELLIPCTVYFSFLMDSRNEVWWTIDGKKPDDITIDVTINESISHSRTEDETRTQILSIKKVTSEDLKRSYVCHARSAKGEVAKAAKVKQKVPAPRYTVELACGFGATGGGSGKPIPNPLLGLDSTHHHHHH
test: BLI (OCTET), mAb captured, 25 C
endpoint label: Kd (nM)

• c11C5 (chimeric 11C5) (antibody, IgG1, V domains shown, Murine VL and VH, human CL and IgG1 CH1-CH3 domains) VH: EVQLVESGGGLVKPGGSLKLSCAASGFTFSNYAMSWVRQTPEKRLEWVATVTEGGDYNYCLDDVKGRFTISRDNANDNLYLQMSHLKSEDSARYYCARDRWPYFFDYWGQGTTLTVSS VL: DIQMTQSPASLSVSVGETVTITCRASENIYSNLAWYQQKQGRSPQLLVYGAKNLADGVPSRFSGSGSGTQYSLNINSLQSEDFGTYYCQHFWTTPRTFGGGTKLEIK = 0.699
• m11C5_C59A (antibody, mouse IgG2a, V domains shown, Murine IgG2a constant domains) VH: EVQLVESGGGLVKPGGSLKLSCAASGFTFSNYAMSWVRQTPEKRLEWVATVTEGGDYNYALDDVKGRFTISRDNANDNLYLQMSHLKSEDSARYYCARDRWPYFFDYWGQGTTLTVSS VL: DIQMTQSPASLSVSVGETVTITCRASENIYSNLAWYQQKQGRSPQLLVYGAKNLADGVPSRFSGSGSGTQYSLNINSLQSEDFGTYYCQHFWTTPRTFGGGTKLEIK = 0.513
